From: PubChem BioAssay (NCI)

experiment: NCI Yeast Anticancer Drug Screen. Data for the mec2-1 strain (AID 157); conditions: S. cerevisiae mec2-1 strain, at 50.0 µM, stronger effect = higher value
This is part of a sample that, as a whole, favours compounds with a hit. Of some 79,000 tested, about 15% had one in any assay.
ASSAY ENDPOINT: growth inhibition (%)
// units = %; emit number, no label

Tell me its growth inhibition given O=C(Cc1ccccc1)NN1C(=O)C(Cl)C1c1ccccc1 (stereo unspecified) as the entry.
15.2

Name the recorded growth inhibition of the item "Cc1ccc(-c2cs/c(=N\N=C3/CSC(=O)N3Cc3ccccc3)n2-c2ccccc2)cc1" in your answer.
22.8

Give me measured growth inhibition, please, for this compound: "O=C(N/N=C\c1ccccc1)Nc1cccc2ccccc12"
16.4

# return recorded growth inhibition for entry "CS/N=C(\c1ccccc1)N(C)C"
-4.05

Consider the compound "O=C(NNc1ccccc1)c1ccc(Cl)cc1Cl" . State its measured growth inhibition.
-9.4

Fill in reported growth inhibition for this entry: "C=CCOc1cc(NC(=S)c2ccoc2C)ccc1OC"
-3.15

====

Would you kindly list growth inhibition for each of these compounds?
test: NCI Yeast Anticancer Drug Screen. Data for the mlh1 rad18 strain (AID 175); conditions: S. cerevisiae mlh1 rad18 strain growth inhibition; at 50.0 µM; stronger effect = higher value
About 79,000 compounds went through this panel and 15% of them were active in at least one assay; those are over-represented in the sample as a whole.
All answers are understood in %, so give the number only.

Please report the measured growth inhibition for COc1ccc(C(O)C(CN(C)C)CN(C)C)cc1 (stereo unspecified)
10.8

Answer with the recorded growth inhibition of NC1C(=O)Nc2ccccc21 (stereo unspecified) only.
4.95

Answer with the recorded growth inhibition of "COCCCNC(=O)c1nc2ccccc2c(=O)n1NC(=O)Cc1ccccc1" only.
-7.75

Tell me measured growth inhibition for CCCCCCCCCC(=O)OCC1OC(n2cc(F)c(=O)[nH]c2=O)C(N)C(OC(=O)CCCCCCCCC)C1O (stereo unspecified) please.
8.15

Return growth inhibition (reported value) for this compound: "N#CCCCCCCl"
14.8

Please report growth inhibition for the following compound: "Oc1ccc2ccccc2c1C=Nc1ccc(SSc2ccc(N=Cc3c(O)ccc4ccccc34)cc2)cc1"
-3.1

====

test: NCI Yeast Anticancer Drug Screen. Data for the cln2 rad14 strain (AID 165);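 also: 0% = growth equal to vehicle treated cultures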; conditions: S. cerevisiae cln2 rad14 strain, at 50.0 µM, stronger effect = higher value
About 79,000 compounds went through this panel and 15% of them were active in at least one assay; those are over-represented in the sample as a whole. Active and inactive are the calls of the source. Rule as the data show it: active = growth inhibition above about 70%; inactive = the rest.
For each record, write down the corresponding growth inhibition.

Tell me measured growth inhibition for "Nc1ccc(Nc2cc(=O)[nH]c(=O)[nH]2)cc1Cl" please.
6.2% (inactive)

Provide measured growth inhibition value, entry: "NC(=O)N/N=C1\CCn2cccc21"
-2.2% (inactive)

Fill in reported growth inhibition for this entry: "Cc1cc2oc(=O)cc(C(=O)O)c2c(=O)o1"
-17.6% (inactive)

Read off the recorded growth inhibition for "CCOC(=O)c1cnc(NCCCCCCNc2ncc(C(=O)OCC)c(=O)[nH]2)[nH]c1=O"
-6.8% (inactive)

Recall and state the measured growth inhibition for CCCCC(C(O)c1ccc(C(C)C)cc1)N(CC)CC (stereo not drawn) .
9% (inactive)

Fill in growth inhibition for record CCN1N=CSC12C(=O)N(c1ccccc1)C(=O)N2c1ccccc1 (stereo not drawn)
0.35% (inactive)

Please supply the value of reported growth inhibition for the item Nc1nn(CC(O)CO)c(=O)s1 (stereo not drawn)
11.8% (inactive)

Let me know recorded growth inhibition for "Cc1ccnc(=S)[nH]1" , thanks.
13.3% (inactive)

Give growth inhibition for the following compound: CCCCc1c2c(nc3c1CCCC3O)CCCC2 (stereo not drawn)
13.2% (inactive)

Item "C=CCOC(=O)C(F)(F)F" : provide growth inhibition
4.35% (inactive)

Kindly indicate its recorded growth inhibition. Item: CC1CN(Cc2ccccc2)CCC1N1CCCC1 (stereo not drawn)
29.4% (inactive)

Quick one: give measured growth inhibition for "O=S1(=O)CC(c2ccccc2)(c2ccccc2)Nc2ccccc21"
-5.65% (inactive)

Specify reported growth inhibition for the compound shown: "CCN(CC)c1ccc(N=Nc2ccc(C)cc2)cc1"
-0.4% (inactive)

Assign growth inhibition to the following record: CC(C)(C)[Si](C)(C)OCC1OC(n2cc(I)c(=O)[nH]c2=O)C(O[Si](C)(C)C(C)(C)C)C1O[Si](C)(C)C(C)(C)C (stereo not drawn)
14.8% (inactive)

Entry "CS(=O)(=O)Nc1nc2ccccc2c(=O)o1" needs its growth inhibition filled in; supply it.
-39.7% (inactive)

Query growth inhibition for "C[C@]12CCC[C@H](O)[C@H]1O2"
0.55% (inactive)

Return the recorded growth inhibition value; entry: "O=c1[nH]c2c([N+](=O)[O-])cc(Cl)cc2nc1/C=C(\O)c1cccnc1"
36.2% (inactive)

Item COC1OC(COC(c2ccccc2)(c2ccccc2)c2ccccc2)C2OC12 (stereo not drawn) : provide growth inhibition
11% (inactive)

Indicate the recorded growth inhibition value for this compound: "CCCCCCC1=CCCC1=O"
-3.6% (inactive)

Provide measured growth inhibition value, entry: "CCCCCC1CCN(C(=O)c2ccc(N)cc2)CC1"
49% (inactive)

Provide only the value of recorded growth inhibition for "Cc1nc(-c2ccccc2)cc2c1c(=O)oc1ccccc12"
6.3% (inactive)

// fetch growth inhibition given entry CCN1c2ccccc2CC(CCN(C)Cc2ccccc2)(C(N)=O)c2ccccc21 (stereo not drawn)
7.45% (inactive)

Identify the reported growth inhibition for the following entry. CCOC(=O)C1CCCC1S(=O)(=O)c1ccc(C)cc1 (stereo not drawn)
21.9% (inactive)

Determine its reported growth inhibition: CCCCNC(=O)C1CCC(CC2CCCCC2)CC1 (stereo not drawn)
-3.3% (inactive)

Look up growth inhibition of "N#CCC(=O)NCCc1ccccn1" and report it.
-44.6% (inactive)

Provide only the value of recorded growth inhibition for "CCCCSc1nc2ccccc2c(=O)[nH]1"
13.3% (inactive)

Supply measured growth inhibition of "Cc1nc(Br)c([N+](=O)[O-])[nH]1" in your reply.
-47.9% (inactive)

Item "O=C(O)C(=O)C(c1ccccc1)c1ccccc1" : provide growth inhibition
-29.1% (inactive)

Dear colleague, please send me the reported growth inhibition for OC1CCCCC1[n+]1ccccc1 (stereo not drawn) when you can.
-24.1% (inactive)

Using the record for "S=c1nc[nH][nH]1" , state its measured growth inhibition.
-8.65% (inactive)

State, in one line, measured growth inhibition of "ON(C(=NCc1ccccc1)c1ccccc1)c1ccccc1"
-17.4% (inactive)

For the compound "Nc1c(Cl)ncnc1NCCN1CCOCC1" , report growth inhibition.
-22.1% (inactive)

Input "OCc1ccc(O)c(CO)n1" , output reported growth inhibition.
5.4% (inactive)

Give a short answer stating reported growth inhibition for "COc1cc(C2C(C(=O)Nc3ccccc3C)=C(C)NC(C)=C2C(=O)Nc2ccccc2C)ccc1O" .
-3.15% (inactive)

For "O=C(COc1cccc(Cl)c1)Nc1ccc(C(=O)CCl)cc1" , write its growth inhibition.
11.8% (inactive)

Indicate the recorded growth inhibition value for this compound: "Cc1ccc(N=c2oc3c(ccc4ccccc43)nc2Nc2ccc(C)cc2)cc1"
-35.5% (inactive)

Write down growth inhibition measured for item CCC(C)OC(=Nc1ccccc1)c1ccccc1 (stereo not drawn)
15.7% (inactive)

Give recorded growth inhibition. "O=C(CCCl)Nc1c(Cl)cccc1Cl"
18.6% (inactive)

Please list growth inhibition recorded for the compound "CNc1ccc(C(=O)O)cc1C(F)(F)F"
0.65% (inactive)

Read off the recorded growth inhibition for "O=C(O)c1nc(-c2ccc(S(=O)(=O)O)cc2)[nH]c1C(=O)O"
-24.8% (inactive)

Return reported growth inhibition. Input compound: "C(#[C][Sn]([c]1ccccc1)([c]1ccccc1)[c]1ccccc1)c1ccccc1"
98.5% (active)

Provide growth inhibition value for the following compound: "NNc1cn[nH]c(=O)c1Cl"
4.4% (inactive)

Name the recorded growth inhibition of the item "C=CCOC(C)OCC=C" in your answer.
-23.5% (inactive)

Output growth inhibition of "CCOC(=O)NC(OCCN(C)C)(C(F)(F)F)C(F)(F)F"
3.3% (inactive)

Please give measured growth inhibition of the following entry: "CC(C)C(C)(C)C(N)=O"
13.9% (inactive)

Indicate the recorded growth inhibition value for this compound: "CCCCCOC(=O)c1cccc(C)c1"
-4.7% (inactive)

Read off the recorded growth inhibition for "Cn1c(Cl)c(C=O)c(=O)n(C)c1=O"
-0.45% (inactive)

Dear colleague, please send me the reported growth inhibition for CC1OC(c2ccccc2)=CC(OCc2ccccc2)[C@H]1OCc1ccccc1 (stereo partly drawn) when you can.
-50.8% (inactive)

Fill in reported growth inhibition for this entry: "Cc1cc(C)c(CC(=O)NCC(=O)NN)c(C)c1"
-13.3% (inactive)

Please supply the value of reported growth inhibition for the item "CCCCCOc1ccc2ccccc2c1"
-20.9% (inactive)

Note growth inhibition for the compound shown: "CN1c2ccccc2C(=O)NC12CCN(Cc1ccccc1)CC2"
0.75% (inactive)

Tell us which growth inhibition value is on record for "Clc1ccc(-c2cc3ccccc3[nH]2)cc1"
-32.4% (inactive)

Identify measured growth inhibition corresponding to COc1ccc(C2OCC(COC(C)=O)O2)cc1OC (stereo not drawn)
-17.9% (inactive)
